Numbers sourced from patent US20050113293A1.

Examples of binders with documented IC50 follow.
TESTED ON: binding site for [125I]AAP10 on intact CHO cells (AAP receptor)
ASSAY NOTES: in situ displacement of [125I]AAP10 on intact CHO cells
[ ]: non-standard residue; d: D form. Hyp = O=C(O)[C@@H]1C[C@@H](O)CN1

Take a look at these entries with their results.
BINDER: H-GP[Hyp]GAG-OH (SMILES C[C@H](NC(=O)CNC(=O)[C@@H]1C[C@@H](O)CN1C(=O)[C@@H]1CCCN1C(=O)CN)C(=O)NCC(=O)O) [H-Gly-Pro-Hyp-Gly-Ala-Gly-OH (AAP)]
IC50: 0.8 nM

BINDER: {ASAL(mono-iodo)}-P[Hyp]GAG-NH2 [ASAL(mono-iodo)-Pro-Hyp-Gly-Ala-Gly-NH2 (Compound 32)]
IC50: 0.5 nM

Notebook: H-GAG[Hyp]PY-NH2 [H-Gly-Ala-Gly-Hyp-Pro-Tyr-NH2 (AAP10)] , IC50 read as 130 nM
